assay: Antiviral activity against Influenza A virus (A/Hong Kong/7/1987(H3N2)) infected in MDCK cells assessed as reduction of virus-induced cytopathic effect after 72 hrs by microscopic analysis; format: functional, cell-based
readout: EC50 (µM)
Give the quantity in µM, number only.

Requested read-out: EC50. Entry: CC(N)C12CC3CC(CC(C3)C1)C2 (stereo unspecified) 4

----------
assay: Cytotoxicity against MDCK cells after 72 hrs by MTS assay; type: cell-based, Canis lupus familiaris; conditions: dog
Listing: CC50 at 72 h of selected compounds

NC12CC3CC(CC(C3)C1)C2 [AMANTADINE] :: > 500 µM

# input compound: NC(=O)c1ncn([C@@H]2O[C@H](CO)[C@@H](O)[C@H]2O)n1 [RIBAVIRIN] ; wanted: its CC50 at 72 h > 100 µM

Consider next the compound CC(N)C12CC3CC(CC(C3)C1)C2 (stereo unspecified) [RIMANTADINE] in the same way. > 500 µM

Can you handle COC(=O)[C@H]1NC(=O)[C@H]2NC(=O)[C@H](NC(=O)[C@@H]3NC(=O)[C@H]4NC(=O)[C@@H](Cc5ccc(c(Cl)c5)Oc5cc3cc(c5O)Oc3ccc(cc3Cl)[C@H]2O[C@@H]2O[C@H](CO)[C@@H](O)[C@H](O)[C@H]2NC(C)=O)NC(=O)[C@H](N)c2ccc(O)c(c2)Oc2cc(O)cc4c2)c2ccc(O)c(c2)-c2c(O)cc(O)cc21 next? > 100 µM

Now consider COC(=O)[C@H]1NC(=O)[C@H]2NC(=O)[C@H](NC(=O)[C@@H]3NC(=O)[C@H]4NC(=O)[C@@H](Cc5ccc(c(Cl)c5)Oc5cc3cc(c5O)Oc3ccc(cc3Cl)[C@H]2O[C@@H]2O[C@H](CO)[C@@H](O)[C@H](O)[C@H]2NC(C)=O)NC(=O)[C@H](Nc2c(OC)c(=O)c2=O)c2ccc(O)c(c2)Oc2cc(O)cc4c2)c2ccc(O)c(c2)-c2c(O)cc(O)cc21 . > 100 µM

And N[C@H]1C(=O)N[C@@H]2Cc3ccc(c(Cl)c3)Oc3cc4cc(c3O)Oc3ccc(cc3Cl)[C@@H](O)[C@@H]3NC(=O)[C@H](NC(=O)[C@@H]4NC(=O)[C@@H](NC2=O)c2cc(O)cc(c2)Oc2cc1ccc2O)c1ccc(O)c(c1)-c1c(O)cc(O)cc1[C@@H](C(=O)O)NC3=O [TEICOPLANIN AGLYCON] ? > 100 µM
